system: U2OS; test: Multiplex assay against U2OS; type: toxicity, cell-based; settings: human, 24 h, 1 µM, compound concentration 1 uM, replicate 2
Consider the following molecules; for each one, report its Population Membrane Permeable-Phenotype (%).
One number for each entry, in %.

In the examples that follow, each entry is paired with its recorded Population Membrane Permeable-Phenotype (%).
Cn1nc(C(F)(F)F)cc1-c1cnc(N2CCc3cc(S(=O)(=O)Nc4c(F)cc(Cl)cc4F)cc(N4CCCC4=O)c32)nc1    13
S=C(NCCCc1c[nH]cn1)NCCCN(Cc1ccc(Cl)c(Cl)c1)c1ccc(Br)cn1    16
O=C1NC(=O)C(c2cnc3ccccn23)=C1c1cn2c3c(cc(F)cc13)CN(C(=O)N1CCCCC1)CC2    7

Provide the reported Population Membrane Permeable-Phenotype (%) of each entry below, same order.
1. CCOC(=O)c1c(C)[nH]c2ccc3c(c12)CN1CCc2cc(OC)ccc2C1O3 (stereo unspecified)
2. COc1cc(N2CCN(C)CC2)ccc1Nc1ncc2c(n1)N(C)c1ccccc1C(=O)N2C
3. Cl.O=C(c1ccc(Nc2nccc(-c3cc4ccccc4s3)n2)cc1)N1CCC(N2CCCC2)CC1
4. COc1cccc2cc(-c3nc([C@H]4CC[C@H](C(=O)O)CC4)n4ncnc(N)c34)[nH]c12

A:
1. 1
2. 6
3. 12
4. 10

Provide the reported Population Membrane Permeable-Phenotype (%) of each entry below, same order.
1. CCOc1cc(C(=O)N2CCC(N3CCN(C)CC3)CC2)ccc1Nc1ncc2c(n1)N(C1CCCC1)c1ccccc1C(=O)N2C
2. CN(C)C(=O)C(CCN1CCC(O)(c2ccc(Cl)cc2)CC1)(c1ccccc1)c1ccccc1.Cl [LOPERAMIDE HYDROCHLORIDE]
3. Cl.O=c1c2cccn2c2ccccc2n1CCCN1CCC(c2ccc(Cl)cc2)CC1
4. CCCS(=O)(=O)Nc1ccc(F)c(C(=O)c2c[nH]c3ncc(Cl)cc23)c1F
5. O=C(Nc1ccc(-c2ccnc(Nc3ccc(N4CCOCC4)cc3)n2)cc1)[C@@H]1CCCN1

A:
1. 5
2. 16
3. 2
4. 9
5. 3

Provide the reported Population Membrane Permeable-Phenotype (%) of each entry below, same order.
1. C=C1/C(=C\C=C2/CCC[C@]3(C)[C@@H]([C@H](C)/C=C/[C@H](C)C(C)C)CC[C@@H]23)C[C@@H](O)C[C@@H]1O
2. CN[C@@H]1C[C@H]2O[C@@](C)([C@@H]1OC)n1c3ccccc3c3c4c(c5c6ccccc6n2c5c31)C(=O)NC4
3. Cc1cc(C)c(S(=O)(=O)N(Cc2ccc(-c3cccc(S(C)(=O)=O)c3)cc2)Cc2ccc(C(F)(F)F)o2)c(C)c1
4. COC(=N)c1nc2ccc3ncnc(Nc4ccc(OC)cc4F)c3c2s1
5. CCN1CCN(c2ccc(Nc3cc(N(C)C(=O)Nc4c(Cl)c(OC)cc(OC)c4Cl)ncn3)cc2)CC1
6. CN1CCN(C(=O)C(C)(C)c2ccc(C(=O)Nc3cn4cc(-c5cc(C(C)(C)C)cc(C(C)(C)C)c5)ccc4n3)cc2)CC1
7. CN1C2CCC1CC(OC(c1ccc(F)cc1)c1ccc(F)cc1)C2.Cl (stereo unspecified)
8. Cc1ccc(C(=O)Nc2cccc(C(F)(F)F)c2)cc1Nc1nc(-c2cccnc2)nc2c1cnn2C

A:
1. 4
2. 95
3. 5
4. 12
5. 19
6. 13
7. 4
8. 7

From: ChEMBL document CHEMBL4689842
